Source listed as PubChem BioAssay (NCI).

Test system: SK-MEL-28 melanoma
Experiment: NCI tumour cell line growth inhibition, 48 h
Measured TGI of individual entries

Some entries whose results are on file:
O=C1C[C@H](c2ccc(O)c(O)c2)Oc2cc(O)cc(O)c21    > 100 µM
COCCNC1CCC2(SCCS2)c2[nH]c3ccccc3c21 (stereo unspecified)    > 100 µM
COc1cc2c(cc1OCCCCCOc1cc3c(cc1OC)C(=O)N1CCC[C@H]1CN3)N=C[C@@H]1CCCN1C2=O    28.2 µM
c1ccc2nc(OCCN3CC3)ccc2c1    29.2 µM
O=S(=O)(/N=C(\NO)Nc1ccc(Cl)cc1)c1ccc(-c2ccccn2)s1    > 100 µM

Consider the record given below.
Data request: Could you share which TGI value was measured for NCCCC[C@H](N)C(=O)Nc1ccc(-c2nc3ccccc3s2)cc1Cl ?
Data returned: 23.4 µM
